Molecular target: Recombinant human Met (c-Met) (Homo sapiens, UniProt P08581)
Construct: purchased Invitrogen PV3143
Sequence (P08581 956-1390 limits assumed): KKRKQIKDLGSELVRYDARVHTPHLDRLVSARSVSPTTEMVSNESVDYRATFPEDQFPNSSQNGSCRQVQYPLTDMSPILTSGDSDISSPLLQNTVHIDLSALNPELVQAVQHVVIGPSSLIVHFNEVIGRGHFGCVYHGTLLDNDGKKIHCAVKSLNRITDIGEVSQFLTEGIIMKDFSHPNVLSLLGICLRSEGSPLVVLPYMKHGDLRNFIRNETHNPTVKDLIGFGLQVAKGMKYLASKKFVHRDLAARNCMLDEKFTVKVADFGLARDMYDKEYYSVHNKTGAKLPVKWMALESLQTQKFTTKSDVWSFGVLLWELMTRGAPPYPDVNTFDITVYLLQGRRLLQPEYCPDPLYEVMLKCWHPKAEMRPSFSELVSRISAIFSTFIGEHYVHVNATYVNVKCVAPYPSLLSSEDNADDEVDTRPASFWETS
Test: Inhibition of c-Met kinase activity using Transcreener FP assay
Assay type: biochemical
Details: Poly E4Y substrate, 28° C. 45 min, read-out: IC50, inhibition of c-Met kinase activity
pIC50: −log10 of the molar value.
The entries below are paired with their reported pIC50.

• N#Cc1ccc(Nc2cnc3nnn(Cc4ccc5ncccc5c4)c3n2)nc1 = 7.00 to 9.00
• Clc1ccc(Nc2cnc3nnn(Cc4ccc5ncccc5c4)c3n2)nc1 = 7.00 to 9.00
• CCOC(=O)Cn1cc(-c2ccc3nnn(Cc4ccc5ncccc5c4)c3n2)cn1 = 7.00 to 9.00
• Cn1cc(-c2ccc3nnn(Cc4cc5[nH]ncc5s4)c3n2)cn1 = 7.00 to 9.00
• COCCOc1cc(Nc2cnc3nnn(Cc4ccc5ncccc5c4)c3n2)ccn1 = 7.00 to 9.00

Lab entry: Recombinant human Met (c-Met) (Homo sapiens, UniProt P08581) assay, compound `COCCn1cc(-c2ccc3nnn(Cc4ccc5ncccc5c4)c3n2)cn1` , pIC50 = 6.00 to 7.00

Measured on Recombinant human Met (c-Met) (Homo sapiens, UniProt P08581), `COc1ccncc1Nc1cnc2nnn(Cc3ccc4ncccc4c3)c2n1` has a documented pIC50 of 7.00 to 9.00

With Recombinant human Met (c-Met) (Homo sapiens, UniProt P08581) as the test system, `COCCOc1ncccc1Nc1cnc2nnn(Cc3ccc4ncccc4c3)c2n1` showed pIC50 of 6.00 to 7.00

Entry `OCCn1cc(-c2ccc3nnn(Cc4c[nH]c5ncccc45)c3n2)cn1` , tested on Recombinant human Met (c-Met) (Homo sapiens, UniProt P08581), has a reported pIC50 of 7.00 to 9.00
